Test system: NOMO1
Assay: cell viability relative to DMSO control; higher = less cytotoxic
Settings: RPMI 5 mM glucose + 10% dialyzed FBS; 48 h; 15.4 µM
List of cell viability values.
Your answer is read as %, so omit the unit and give the number.

structure_notation=C1CCN2C[C@H]3C[C@H](\C=C/4CCCN[C@@H]34)[C@H]2C1 endpoint_name="cell viability" val=78.6
structure_notation=OCCn1cc(-c2cnc3nnn(Cc4ccc5ncccc5c4)c3n2)cn1 endpoint_name="cell viability" val=80.6

Next item in the queue.
Data request: # lookup: cell viability of "C[C@](N)(Cc1ccc(O)c(O)c1)C(=O)O"
Data returned: 79
